// values below are reported optical density
target: human ACVR2A (human, UniProt P27037 20-135, limits assumed); assay: ELISA; also: test concentration or dose not given here
Sequence (P27037 20-135 limits assumed): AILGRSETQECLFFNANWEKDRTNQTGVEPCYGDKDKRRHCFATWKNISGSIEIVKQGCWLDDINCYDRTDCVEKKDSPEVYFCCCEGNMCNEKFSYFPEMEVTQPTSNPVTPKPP

BINDER: 370_G12 (antibody, V domains shown, VH/VL only) VH: EVQLLESGGGLVQPGGSLRLSCAASGFTFSSYSMNWVRQAPGKGLEWVAGINYNGGYKGYADSVKGRFTISRDNSKNTLYLQMNSLRAEDTAVYYCARSATWHDTALDYWGQGTLVTVSS VL: DIQMTQSPSSLSASVGDRVTITCRASQSIITYLNWYQQKPGKAPKLLIYAATSLASGVPSRFSGSGSGTDFTLTISSLQPEDFATYYCQQSDESPLTFGGGTKVEIK
optical density [OD]: 1.34
//
BINDER: 373_G05 (antibody, V domains shown, VH/VL only) VH: EVQLLESGGGLVQPGGSLRLSCAASGFTFSSYSMNWVRQAPGKGLEWVAGINYNGGYTSYADSVKGRFTISRDNSKNTLYLQMNSLRAEDTAVYYCARSATWHDTHLDYWGQGTLVTVSS VL: DIQMTQSPSSLSASVGDRVTITCRASQSILSYLNWYQQKPGKAPKLLIYAATSLASGVPSRFSGSGSGTDFTLTISSLQPEDFATYYCQQSYELPLTFGGGTKVEIK
optical density [OD]: 3.61
//
BINDER: 374_G06 (antibody, V domains shown, VH/VL only) VH: EVQLLESGGGLVQPGGSLRLSCAASGFTFSSYGMHWVRQAPGKGLEWVASINYNGGYTSYADSVKGRFTISRDNSKNTLYLQMNSLRAEDTAVYYCARSANWHDTALDYWGQGTLVTVSS VL: DIQMTQSPSSLSASVGDRVTITCRASQSILSYLNWYQQKPGKAPKLLIYAVTSRASGVPSRFSGSGSGTDFTLTISSLQPEDFATYYCQQSYDLPLTFGGGTKVEIK
optical density [OD]: 3.26
//
BINDER: 375_H12 (antibody, V domains shown, VH/VL only) VH: EVQLLESGGGLVQPGGSLRLSCAASGFTFSSYGMNWVRQAPGKGLEWVAGINYNGGYKGYADSVKGRFTISRDNSKNTLYLQMNSLRAEDTAVYYCARSANWHDTALDYWGQGTLVTVSS VL: DIQMTQSPSSLSASVGDRVTITCRASQSILTYLNWYQQKPGKAPKLLIYYVTNRQSGVPSRFSGSGSGTDFTLTISSLQPEDFATYYCQQSYSIPLTFGGGTKVEIK
optical density [OD]: 3.26
//
BINDER: 375_C12 (antibody, V domains shown, VH/VL only) VH: EVQLLESGGGLVQPGGSLRLSCAASGFTFSSYSMNWVRQAPGKGLEWVANINYNGGYTGYADSVKGRFTISRDNSKNTLYLQMNSLRAEDTAVYYCARSATWHDTHLDYWGQGTLVTVSS VL: DIQMTQSPSSLSASVGDRVTITCRASQSILTYLNWYQQKPGKAPKLLIYAATSRASGVPSRFSGSGSGTDFTLTISSLQPEDFATYYCQQSYDLPLTFGGGTKVEIK
optical density [OD]: 3.66
